# tgt: UniProt P04585
# assay: Inhibition of HIV Protease
# Format: biochemical
# condition context: Table 1, Inhibition of HIV Protease by compounds of formula drawing 46
Kindly supply the reported pKi values for the records listed here.
Numbers only, as −log10 of the molar value.

In the examples that follow, each entry is paired with its recorded pKi.
// returns reported pKi for input Cc1ccc(S(=O)(=O)NC(C(=O)O)C2CC(c3ccc4ccccc4c3)OC2CC(O)c2ccccc2)cc1 (stereo not drawn)
6.82

For Cc1ccc(S(=O)(=O)NC(C(=O)O)C2CC(c3ccccc3)OC2CC(O)CO)cc1 (stereo not drawn) then?
7.57

Turning now to a further molecule:
Param item = Cc1ccc(S(=O)(=O)NC(C(=O)O)C2CC(c3ccccc3)OC2CC(O)c2ccccc2)cc1 (stereo not drawn) ; retrieve measured pKi.
8.40
